System: COLO 205 colon
Test: NCI tumour cell line growth inhibition, 48 h
Where a SMILES comes first, the peptide text is derived from it. [ ]: non-standard residue; d: D form. The star is where a group is joined. Phe(2-OMe) = COc1ccccc1C[CH](N)C(=O)O; Cbz = O=C(OCc1ccccc1)*; OBn = c1ccc(CO*)cc1

Molecule	TGI
Cc1nc(Nc2ccc(Cl)cc2)sc1C(=O)NNC(=O)C(=O)NN	35.8 µM
O=C(O)CCC[C@]1(O)O[C@@]2(CCCC2=O)[C@]2(O)CCC[C@@]21O	> 100 µM
O=C(Nc1ccc(Cl)cc1)/C(=C(/[O-])c1ccc(Br)cc1)[n+]1cccc(-c2ccc(Cl)cc2)n1	> 100 µM
CS(=O)(=O)OCCn1c2c(c3c(O)cccc31)C(=O)c1ccccc1-2	> 100 µM
C[C@@]1(O)C2C3CC4C5C3C1[C@](O)(C42)[C@H]5Br (some centres undefined)	> 100 µM
COC(=O)C(Cc1ccccc1OC)NC(=O)C(CC(=O)OCc1ccccc1)NC(=O)OCc1ccccc1 (centres undefined) (Cbz-Asp(OBn)-[Phe(2-OMe)]-OMe; configuration not given here)	> 100 µM
COC(=O)CC(=O)OC	> 100 µM
C=C(C)[C@@H]1CC[C@]2(C)[C@H](CC[C@@H]3[C@@H]([C@@](C)(O)CCC=C(C)C)CC[C@]32C)[C@@]1(C)CCC(=O)N1CCN(C)CC1	26.8 µM
Cc1oc2nc[nH]c(=O)c2c1C(=O)/C=C/c1ccc(Br)cc1	5.5 µM
